# measurement.description: GC/MS of serum sample: time from blood collection to centrifugation (Table G)
# Assay type: physicochemical, human
# measurement.setup: detection intensity relative to 1 at 15 minutes, blood collection to centrifugation, after 4 hours
Please provide measured Rate of increase or decrease for the entries that follow.
Please give only the number in your answer, with no unit.

Lab note: measured Rate of increase or decrease of O=C1O[C@H]([C@@H](O)CO)C(O)=C1O [Ascorbic acid] was 0.62

Rate of increase or decrease recorded for this compound, NC(=O)NC1NC(=O)NC1=O (stereo not drawn) [Allantoin] , is 1.67

Rate of increase or decrease measured on NCCS(=O)O [Hypotaurine] = 1.69

====

# measurement.description: GC/MS of serum sample: number of times of freezing and thawing (Table I)
# Type: physicochemical, human
# Set-up: key: detection intensity relative to 2 freeze-thaw cycles = 1
# measurement.setup: 10 times of freezing and thawing; detection intensity relative to 1 at 2 times
Consider the following molecules; for each one, report its Rate of increase or decrease.
Enter a number only.

Per the record, CC(O)(CC(=O)O)C(=O)O (centres unmarked) has Rate of increase or decrease of 0.53

Looking up NO [Hydroxylamine] , I see its Rate of increase or decrease listed as 2.31

response.value for "Cc1ncc(CO)c(CN)c1O" (field: Rate of increase or decrease) = 0.61

The molecule listed as "O=C(O)c1ccccc1" has a reported Rate of increase or decrease of 3.86

Per the record, "OC[C@H]1O[C@H](O[C@H]2O[C@H](CO)[C@@H](O)[C@H](O)[C@H]2O)[C@H](O)[C@@H](O)[C@@H]1O" has Rate of increase or decrease of 0.69

For "O=C(O)CO" the molecule record lists Rate of increase or decrease as 0.66

So, "OC[C@@H](O)[C@@H](O)CO" ? Its Rate of increase or decrease was 0.69

Data point: "O=C(CO)[C@H](O)[C@H](O)CO" ; Rate of increase or decrease = 0.68

====

# measurement.description: GC/MS of serum sample: time from blood collection to centrifugation (Table G)
# Format: physicochemical, human
# measurement.setup: detection intensity, blood collection to centrifugation, after 4 hours vs 15 minutes
value.type: Increase or decrease

Cc1ncc(CO)c(CN)c1O = Increase
O=C1CCNC(=O)N1 [Dihydrouracil] = Increase

====

# measurement.description: GC/MS of serum sample: time from blood collection to centrifugation (Table G)
# Assay type: physicochemical, human
# measurement.setup: detection intensity relative to 1 at 15 minutes, blood collection to centrifugation, after 4 hours
So I've got a bunch of compounds here, and I need their Rate of increase or decrease values.
No unit in the answer, please; the number alone is enough.

Kindly note the recorded Rate of increase or decrease for "O=C[C@H](O)[C@@H](O)[C@H](O)CO" , which is 1.47

Please fill in: Rate of increase or decrease reported for "O=C(CO)[C@H](O)[C@@H](O)[C@H](O)CO" = 1.53

Notebook: "NCCCCCN" , Rate of increase or decrease read as 1.38

Rate of increase or decrease in this record for "N[C@@H](CS(=O)O)C(=O)O" : 1.91

====

# measurement.description: GC/MS of blood plasma sample: number of times of freezing and thawing (Table C)
# Assay type: physicochemical, human
# measurement.setup: detection intensity relative to 1 at 2 times, freezing and thawing 10 times
value.type: Rate of increase or decrease
Respond with the number and no other words.

Measured Rate of increase or decrease, CN(C)CC(=O)O [Dimethylglycine] : 1.34

Briefly, Rate of increase or decrease measured for NC(=O)NC1NC(=O)NC1=O (centres unmarked) [Allantoin] : 1.42

// Rate of increase or decrease lookup, compound = NCCc1c[nH]c2ccccc12 [Tryptamine] , result: 0.69

According to the records, this compound O=C(O)/C=C\C(=O)O [Maleic acid] displays Rate of increase or decrease of 2.12

Short answer for NCCc1c[nH]cn1 [Histamine] : Rate of increase or decrease was 1.63
